Below: a set of entries, each annotated with reported Activity.
- TARGET_OR_TEST_SYSTEM: Alpha-2A adrenergic receptor (Rattus norvegicus) (UniProt P22909)
- Sequence (P22909 whole entry): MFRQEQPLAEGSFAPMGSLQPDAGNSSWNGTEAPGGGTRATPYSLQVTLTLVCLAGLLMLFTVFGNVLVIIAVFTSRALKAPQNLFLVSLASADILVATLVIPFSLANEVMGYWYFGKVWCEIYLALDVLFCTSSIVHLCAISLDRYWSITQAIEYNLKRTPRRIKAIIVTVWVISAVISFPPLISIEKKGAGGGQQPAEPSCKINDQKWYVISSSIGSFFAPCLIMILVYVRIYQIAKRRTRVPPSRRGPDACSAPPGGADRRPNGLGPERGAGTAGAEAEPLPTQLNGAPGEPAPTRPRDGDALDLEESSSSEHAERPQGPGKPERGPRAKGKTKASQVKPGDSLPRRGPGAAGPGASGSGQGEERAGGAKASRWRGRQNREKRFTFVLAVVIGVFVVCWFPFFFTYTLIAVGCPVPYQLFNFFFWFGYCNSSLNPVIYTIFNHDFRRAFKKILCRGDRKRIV
- PROTOCOL_NOTES: Displacement of [3H]RX 821002 from Adrenergic alpha-2a receptor in rat cerebral cortex cells at 1 uM
- Type: cell-based

# count of solved cases: 2
| SMILES_DATA | Activity |
| --- | --- |
| CC(=O)Nc1cccc(N2CCN(CCCCNS(=O)(=O)C3CCCCC3)CC2)c1 | < 10% |
| CC(=O)Nc1cccc(N2CCN(CC3CCN(S(=O)(=O)C(C)C)CC3)CC2)c1 | < 10% |

# compound CC(=O)Nc1cccc(N2CCN(CCCCNS(=O)(=O)C(C)C)CC2)c1 ; its Activity = < 10%
